experiment: chemical genetic growth profiling, strain panel (AID 1159580);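 also: tested at 20 µM; growth read once vehicle control cultures reached saturation at 30 °C; 1 = growth at the plate median or of vehicle wells; lower values mean less growth of the strain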; details: S. cerevisiae deletion strains, growth OD, locus YHR129C, strain ARP1
In all, about 5,500 compounds went through this assay and about 2,000 (36%) were called active. About 18% were inconclusive and are not listed. Rule as the data show it: active = normalized growth mostly below about 0.91 (no sharp cut-off); inconclusive = no clear call, values can overlap the other calls; inactive = mostly above about 0.92. The list shows a part of the results.
The reply should name one outcome from active, inactive

O=C(O)C(O)C(O)C(=O)O (stereo not drawn); inactive

Exam item: Tell me the assay call for CNc1ccc(C(=O)CC(O)CCC(C)C2OC(=O)CC(O)CC(=O)CC(O)CC(O)CC(O)CC(O)CC3(O)CC(O)C(C(=O)OC)C(CC(OC4OC(C)C(O)C(N)C4O)/C=C/C=C/C=C/C=C/C=C/C=C/C=C/C2C)O3)cc1 (stereo not drawn) please.
Marked response: active

Exam item: Tell me the assay call for COC1C=CC23c4cc5c(cc4CN(CC2O)[C@@H]3C1)OCO5 (stereo partly drawn) please.
Marked response: inactive

Exam item: Tell me the assay call for CC1OC(O[C@H]2/C=C/C=C/C=C/C=C/C=C/C=C/C=C/[C@H](C)[C@@H](O)[C@@H](C)[C@H](C)OC(=O)CC(O)CC(O)CCC(O)C(O)CC(O)C[C@]3(O)C[C@H](O)C(C(=O)O)C(C2)O3)C(O)[C@H](N)C1O (stereo partly drawn) please.
Marked response: inactive

Exam item: Tell me the assay call for O=C(O)C(O)C(O)C(O)C(O)C(=O)O (stereo not drawn) please.
Marked response: inactive

Exam item: Tell me the assay call for `NC(N)=NCCN1CCCCCCC1` please.
Marked response: inactive

Exam item: Tell me the assay call for `CC(C)(S)[C@@H](N)C(=O)O` please.
Marked response: inactive

Exam item: Tell me the assay call for C[C@]12CCC3c4ccc(O)cc4CCC3C1CCC2=O (stereo partly drawn) please.
Marked response: inactive

====

assay: chemical genetic growth profiling, strain panel (AID 1159580);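 also: tested at 20 µM; growth read once vehicle control cultures reached saturation at 30 °C; 1 = growth at the plate median or of vehicle wells; lower values mean less growth of the strain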; details: S. cerevisiae deletion strains, growth OD, locus YPL256C, strain CLN2
Hit rate of the full screen: of about 5,500 compounds, about 2,000 (36%) were called active. About 18% were inconclusive and are not listed. No stated cut-off is given here; in the data, active means normalized growth mostly below about 0.91 (no sharp cut-off); inconclusive means no clear call, values can overlap the other calls; inactive means mostly above about 0.92. The list shows a part of the results.
The reply should name one outcome from active, inactive

CCCNC(=O)NS(=O)(=O)c1ccc(Cl)cc1; inactive

Here is the next item to consider.
Exam item: Tell me the assay call for C[C@@H]1CC2C3CCC4=CC(=O)C=C[C@]4(C)[C@@]3(F)[C@@H](O)C[C@]2(C)[C@@]1(O)C(=O)CO (some centres undefined) please.
Marked response: inactive

====

experiment: chemical genetic growth profiling, strain panel (AID 1159580);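 also: tested at 20 µM; growth read once vehicle control cultures reached saturation at 30 °C; 1 = growth at the plate median or of vehicle wells; lower values mean less growth of the strain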; conditions: S. cerevisiae deletion strains, growth OD, locus YOR061W, strain CKA2, hits give low values
The whole screen tested about 5,500 compounds, of which about 2,000 (36%) were called active. About 18% were inconclusive and are not listed. Some of the results follow.
Listed here: items and their measured normalized growth.
Returns: the value as a bare number; no unit string appended.

Worked set:
O=C(Oc1ccc2ccccc2c1C1SCCS1)c1ccc([N+](=O)[O-])o1; 0.921
NC(N)=NCCN1CCCCCCC1; 1.01
O=c1oc2ccccc2cc1O; 1.02
N#Cc1cccc(CSc2nc3ccc(C(F)(F)F)cc3[nH]2)c1; 0.9
CCC(=O)OC1[C@@H]2CC3=C4CC(=O)O[C@@H](c5ccoc5)[C@]4(C)CCC3[C@@](C)(C2=O)[C@@H](CC(=O)OC)C1(C)C (stereo not given in full); 0.996

Item: NCC[C@@H](O)C(=O)N[C@@H]1C[C@H](N)[C@@H](O[C@H]2O[C@H](CN)[C@@H](O)[C@H](O)[C@H]2O)[C@H](O)[C@H]1O[C@H]1O[C@H](CO)[C@@H](O)[C@H](N)C1O (stereo not given in full) | normalized growth: 1.01

Item: `O=C(O)COc1ccc(Cl)cc1Cl` | normalized growth: 1.01
